# MEASURED_ON: HLA-A*01:01
# METHOD_NOTES: IEDB peptide-MHC binding, purified MHC/direct/fluorescence; filed as Kd, often an IC50 or EC50 that approximates it; bounds were set here for any values at or beyond the usual limits of such assays
# CONDITION: source organism: Vibrio vulnificus
PROPERTY: Kd (nM)
Kindly provide the numeric value in nM only, without the unit symbol.

Looking for the measured Kd of `QSDIAGAIH` , can you help?
1660

---

# MEASURED_ON: HLA-A*01:01
# METHOD_NOTES: IEDB peptide-MHC binding, purified MHC/competitive/fluorescence; filed as Kd, often an IC50 or EC50 that approximates it; bounds were set here for any values at or beyond the usual limits of such assays
# CONDITION: source organism: Yersinia pestis Nepal516
pKd: −log10 of the molar value.
PROPERTY: pKd

Looking for the measured pKd of `MTSELAALI` , can you help?
≤ 4.70

---

# MEASURED_ON: HLA-B*08:01
# METHOD_NOTES: IEDB peptide-MHC binding, purified MHC/direct/fluorescence; filed as Kd, often an IC50 or EC50 that approximates it; bounds were set here for any values at or beyond the usual limits of such assays
# CONDITION: source organism: SARS-CoV1
PROPERTY: Kd (nM)
Kindly provide the numeric value in nM only, without the unit symbol.

>>> print(df.to_string())
         seq  reading
0  NPKTPKYKF     1150

Now look at this one.
Kindly state the measured Kd obtained for `YRYLRHGKL` with HLA-B*08:01.
104

---

# MEASURED_ON: HLA-B*40:01
# METHOD_NOTES: IEDB peptide-MHC binding, purified MHC/competitive/radioactivity; filed as Kd, often an IC50 or EC50 that approximates it; bounds were set here for any values at or beyond the usual limits of such assays
# CONDITION: source organism: Mammarenavirus lassaense
PROPERTY: Kd (µM)
Kindly provide the numeric value in µM only, without the unit symbol.

Looking for the measured Kd of `DEADLDEILL` , can you help?
18.1

---

# MEASURED_ON: HLA-A*02:03
# METHOD_NOTES: IEDB peptide-MHC binding, purified MHC/competitive/radioactivity; filed as Kd, often an IC50 or EC50 that approximates it; bounds were set here for any values at or beyond the usual limits of such assays
# CONDITION: source organism: Mammarenavirus brazilense
PROPERTY: Kd (µM)
Kindly provide the numeric value in µM only, without the unit symbol.

Looking for the measured Kd of `KNATWCLEV` , can you help?
7.01

---

Listed here are sequences together with their documented Kd.
# MEASURED_ON: HLA-B*35:01
# METHOD_NOTES: IEDB peptide-MHC binding, purified MHC/competitive/radioactivity; filed as Kd, often an IC50 or EC50 that approximates it; bounds were set here for any values at or beyond the usual limits of such assays
# CONDITION: source organism: Dengue virus 3 Martinique/1243/1999
Kindly provide the numeric value in nM only, without the unit symbol.

Answered cases to consult:
>>> print(df.to_string())
          seq  measured_on  reading
0   LAILFEEVM  HLA-B*35:01     33.1
1  RPISEKEENM  HLA-B*35:01      502
2  MPSMKRFRKE  HLA-B*35:01    14000

Looking for the measured Kd of `LPWTSGATT` , can you help?
1300
